// pKi lookup, one value per entry
- System Name: UniProtKB Q04609
- Sequence (Q04609 whole entry): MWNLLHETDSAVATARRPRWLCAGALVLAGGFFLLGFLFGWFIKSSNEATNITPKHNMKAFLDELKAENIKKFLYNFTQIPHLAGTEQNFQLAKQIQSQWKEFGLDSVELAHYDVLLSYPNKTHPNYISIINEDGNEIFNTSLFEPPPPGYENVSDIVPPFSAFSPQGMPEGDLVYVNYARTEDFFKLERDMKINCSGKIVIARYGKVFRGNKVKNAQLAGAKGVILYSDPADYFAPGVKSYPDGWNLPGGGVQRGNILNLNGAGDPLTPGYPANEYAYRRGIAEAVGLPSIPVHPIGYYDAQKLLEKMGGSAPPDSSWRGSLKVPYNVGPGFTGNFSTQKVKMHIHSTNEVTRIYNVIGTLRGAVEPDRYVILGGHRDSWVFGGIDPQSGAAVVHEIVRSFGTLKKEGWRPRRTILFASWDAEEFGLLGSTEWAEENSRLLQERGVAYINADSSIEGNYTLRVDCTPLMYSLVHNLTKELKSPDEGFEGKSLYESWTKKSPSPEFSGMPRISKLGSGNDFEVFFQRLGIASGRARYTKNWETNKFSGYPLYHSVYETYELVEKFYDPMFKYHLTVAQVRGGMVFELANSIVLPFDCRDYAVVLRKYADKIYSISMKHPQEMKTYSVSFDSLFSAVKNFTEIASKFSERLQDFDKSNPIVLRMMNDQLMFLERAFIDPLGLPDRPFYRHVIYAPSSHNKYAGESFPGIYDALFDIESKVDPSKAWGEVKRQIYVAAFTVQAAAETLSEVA
pKi: −log10 of the molar value.
Assay Readout: pKi

[[record]]
compound = "CCC1(CC)C(=O)N([C@@H](CCCCNC(=O)OCc2ccccc2)C(=O)O)C(=O)N([C@@H](CCC(=O)O)C(=O)O)C1=O"
assay_readout = "pKi"
comparison_symbol = "="
reported = 6.50

[[record]]
compound = "O=C(O)CCC(CP(=O)(O)NCCc1ccccc1)C(=O)O (centres unmarked)"
assay_readout = "pKi"
comparison_symbol = "<"
reported = 5.52

[[record]]
compound = "O=C(O)CC[C@H](NC(=O)N[C@@H](CCCCNc1nc(-c2ccc(-n3cc(CCCF)nn3)cc2)cs1)C(=O)O)C(=O)O"
assay_readout = "pKi"
comparison_symbol = "="
reported = 9.22

[[record]]
compound = "O=C(O)CC[C@H](NC(=O)NC(CCCCNc1nc(NCCN(CCNC(=O)Cn2cc(CCCF)nn2)CCNc2ccc([N+](=O)[O-])c(NCCCCC(NC(=O)N[C@@H](CCC(=O)O)C(=O)O)C(=O)O)n2)ccc1[N+](=O)[O-])C(=O)O)C(=O)O (some centres unmarked)"
assay_readout = "pKi"
comparison_symbol = "="
reported = 9.70

[[record]]
compound = "O=C(O)CC[C@H](NC(=O)NC(Cc1ccc(OCCn2cc(CCCF)nn2)cc1)C(=O)O)C(=O)O (some centres unmarked)"
assay_readout = "pKi"
comparison_symbol = "="
reported = 7.03

[[record]]
compound = "O=C(O)CC[C@H](NC(=O)N[C@@H](Cc1ccc(OCCOCCOCCn2cc(CCCF)nn2)cc1)C(=O)O)C(=O)O"
assay_readout = "pKi"
comparison_symbol = "="
reported = 7.39

[[record]]
compound = "O=C(O)CCC(CP(=O)(O)OC[C@@H]1CCCN1C(=O)CCCc1ccc(-n2cc(CCCF)nn2)cc1)C(=O)O (some centres unmarked)"
assay_readout = "pKi"
comparison_symbol = "="
reported = 7.73

[[record]]
compound = "O=C(O)CC[C@H](NC(=O)N[C@@H](CCCCNC(=O)Cn1cc(CCCF)nn1)C(=O)O)C(=O)O"
assay_readout = "pKi"
comparison_symbol = "="
reported = 7.39

[[record]]
compound = "O=C(O)CC[C@H](NC(=O)N[C@@H](CCCCNC(=O)CC(CC(=O)NCCCC[C@H](NC(=O)N[C@@H](CCC(=O)O)C(=O)O)C(=O)O)NC(=O)Cn1cc(CCCF)nn1)C(=O)O)C(=O)O"
assay_readout = "pKi"
comparison_symbol = "="
reported = 8.89

[[record]]
compound = "O=C(O)C(Cn1cc(CCCF)nn1)CP(=O)(O)O (centres unmarked)"
assay_readout = "pKi"
comparison_symbol = "<"
reported = 6.16

[[record]]
compound = "O=C(O)CC[C@H](NC(=O)N[C@@H](CCCCNC(=O)c1ccc(-n2cc(CCCF)nn2)cc1)C(=O)O)C(=O)O"
assay_readout = "pKi"
comparison_symbol = "="
reported = 8.80

